pIC50: −log10 of the molar value.
pIC50, PIK3CB (Human) (UniProt P42338): measured values

{"columns": ["smiles", "pIC50"],
 "data": [
  ["CC(=O)Nc1ccc(-c2cccc3cc([C@H](C)NC(=O)c4c(N)nn5cccnc45)n(-c4ccccc4)c(=O)c23)cc1", "≤ 5.00"],
  ["C[C@H](NC(=O)c1nc(-c2ccc(NS(C)(=O)=O)cc2)cnc1N)c1cc2cccc(Cl)c2c(=O)n1-c1ccccc1", "≤ 5.00"],
  ["C[C@H](NC(=O)c1nccnc1N)c1cc2cccc(-c3cc[nH]n3)c2c(=O)n1-c1ccccc1", "≤ 5.00"],
  ["Cc1cnc(C(=O)N[C@@H](C)c2c(Br)c3cccc(Cl)c3c(=O)n2-c2ccccc2)c(N)n1", "≤ 5.00"],
  ["C[C@H](NC(=O)c1c(N)ncc2cccnc12)c1cc2cccc(Cl)c2c(=O)n1-c1ccccc1", "6.00 to 7.00"],
  ["C[C@H](NC(=O)c1c(N)nn2cccnc12)c1cc2cccc(Cl)c2c(=O)n1C1CC1", "> 7.00"],
  ["Cc1cc(C)n2nc(N)c(C(=O)N[C@@H](C)c3cc4cccc(Cl)c4c(=O)n3-c3ccccc3)c2n1", "6.00 to 7.00"],
  ["C[C@H](NC(=O)c1c(N)nn2cccnc12)c1cc2cccc(Cl)c2c(=O)n1C", "> 7.00"],
  ["C[C@H](NC(=O)c1c(N)nn2cccnc12)c1cc2cccc(N(C)C)c2c(=O)n1-c1ccccc1", "≤ 5.00"],
  ["C[C@H](NC(=O)c1c(N)nn2cccnc12)c1cc2cccc(-c3cnn(C)c3)c2c(=O)n1-c1ccccc1", "≤ 5.00"],
  ["C[C@H](NC(=O)c1c(N)nn2cccnc12)c1nn2ccc(Cl)c2c(=O)n1-c1ccccc1", "≤ 5.00"],
  ["COc1ncc(-c2cccc3cc([C@H](C)NC(=O)c4c(N)nn5cccnc45)n(-c4ccccc4)c(=O)c23)s1", "≤ 5.00"],
  ["C[C@H](NC(=O)c1c(N)nn2cccnc12)c1cc2cccc(/C=N\\O)c2c(=O)n1-c1ccccc1", "≤ 5.00"],
  ["C[C@H](NC(=O)c1c(N)nn2cccnc12)c1cc2cccc(NCC(F)(F)F)c2c(=O)n1-c1ccccc1", "≤ 5.00"],
  ["C[C@H](NC(=O)c1c(N)nn2cccnc12)c1cc2scc(Cl)c2c(=O)n1-c1ccccc1", "6.00 to 7.00"],
  ["C[C@H](NC(=O)c1cc(-c2cccc(NS(C)(=O)=O)c2)cnc1N)c1cc2cccc(Cl)c2c(=O)n1-c1ccccc1", "≤ 5.00"],
  ["C[C@H](NC(=O)c1c(N)nn2cccnc12)c1cc2cccc(N3CCN(C)CC3)c2c(=O)n1-c1ccccc1", "≤ 5.00"],
  ["C[C@H](NC(=O)c1c(N)nn2cccnc12)c1nc2cccc(Cl)c2c(=O)n1-c1ccccc1", "6.00 to 7.00"],
  ["C[C@H](NC(=O)c1c(N)nn2cccnc12)c1cc2cccc(-c3cncs3)c2c(=O)n1-c1ccccc1", "≤ 5.00"],
  ["C[C@H](NC(=O)c1nc(-c2cccc(S(=O)(=O)NC3CC3)c2)cnc1N)c1cc2cccc(Cl)c2c(=O)n1C", "> 7.00"],
  ["C[C@H](NC(=O)c1c(N)nn2cccnc12)c1cc2cccc(C3CC3)c2c(=O)n1-c1ccccc1", "≤ 5.00"],
  ["CC(=O)Nc1ncc(-c2cccc3cc([C@H](C)NC(=O)c4c(N)nn5cccnc45)n(-c4ccccc4)c(=O)c23)s1", "≤ 5.00"],
  ["COc1ccc(-c2cccc3cc([C@H](C)NC(=O)c4c(N)nn5cccnc45)n(-c4ccccc4)c(=O)c23)cn1", "≤ 5.00"],
  ["Cc1cnc(C(=O)N[C@@H](C)c2cc3cccc(C(F)(F)F)c3c(=O)n2-c2ccccc2)c(N)n1", "≤ 5.00"],
  ["CC(=O)Nc1ncc(-c2cccc(NS(C)(=O)=O)c2)nc1C(=O)N[C@@H](C)c1cc2cccc(Cl)c2c(=O)n1C", "≤ 5.00"],
  ["C[C@H](NC(=O)c1nccnc1N)c1cc2cccc(-c3cccnc3)c2c(=O)n1-c1ccccc1", "≤ 5.00"],
  ["C[C@H](NC(=O)c1c(N)nn2cccnc12)c1cc2cccc(NC3CCCCC3)c2c(=O)n1-c1ccccc1", "≤ 5.00"],
  ["C[C@H](NC(=O)c1nc(-c2cccc(NS(C)(=O)=O)c2)cnc1N)c1cc2cccc(Cl)c2c(=O)n1C", "> 7.00"],
  ["C[C@H](NC(=O)c1c(N)nn2cccnc12)c1cc2scc(-c3cnn(C)c3)c2c(=O)n1-c1ccccc1", "≤ 5.00"],
  ["C[C@H](NC(=O)c1c(N)nn2cccnc12)c1cc2cccc(Cl)c2c(=O)n1CCN(C)S(C)(=O)=O", "6.00 to 7.00"],
  ["C[C@H](NC(=O)c1c(N)nn2cccnc12)c1cc2cccc(-c3cncc(NS(C)(=O)=O)c3)c2c(=O)n1-c1ccccc1", "≤ 5.00"],
  ["C#Cc1cccc2cc([C@H](C)NC(=O)c3c(N)nn4cccnc34)n(-c3ccccc3)c(=O)c12", "6.00 to 7.00"],
  ["CNS(=O)(=O)c1cccc(-c2cnc(N)c(C(=O)N[C@@H](C)c3cc4cccc(Cl)c4c(=O)n3-c3ccccc3)n2)c1", "6.00 to 7.00"]
]}
